# cAMP Assay (EC-50) listing for each entry below
# targetDesc: melanocortin-1 receptor (human, UniProt Q01726 1-317)
# Sequence (Q01726 whole entry): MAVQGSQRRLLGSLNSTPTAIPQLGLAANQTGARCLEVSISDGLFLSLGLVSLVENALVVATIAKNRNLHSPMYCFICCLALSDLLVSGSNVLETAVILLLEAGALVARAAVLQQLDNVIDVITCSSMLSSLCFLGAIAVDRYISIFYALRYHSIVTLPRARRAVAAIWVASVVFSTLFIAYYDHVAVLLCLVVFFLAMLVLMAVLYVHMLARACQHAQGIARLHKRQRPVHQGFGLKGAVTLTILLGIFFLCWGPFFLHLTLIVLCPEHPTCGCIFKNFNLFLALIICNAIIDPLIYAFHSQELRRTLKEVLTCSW
# experimentalDetails: cell-based or functional assay
Bridge positions count the residues as written; N and C are the ends. Square brackets hold non-standard residues; d marks the D form.
Report as: number unit

INSERT INTO measurements (binder, result) VALUES
  ('Ac-RC[dA]R[dF]RWC-NH2 (disulfide 2-8; SMILES CC(=O)N[C@@H](CCCNC(=N)N)C(=O)N[C@H]1CSSC[C@@H](C(N)=O)NC(=O)[C@H](Cc2c[nH]c3ccccc23)NC(=O)[C@H](CCCNC(=N)N)NC(=O)[C@@H](Cc2ccccc2)NC(=O)[C@H](CCCNC(=N)N)NC(=O)[C@@H](C)NC1=O) [Ac-Arg-cyclo[Cys-D-Ala-Arg-D-Phe-Arg-Trp-Cys]-NH2]', '6.2 nM'),
  ('Ac-RC[dV]H[dF]RWC-NH2 (disulfide 2-8) [Ac-Arg-cyclo[Cys-D-Val-His-D-Phe-Arg-Trp-Cys]-NH2]', '1.25 nM');

Please find the next binder below.
Request: Provide only the value of recorded cAMP Assay (EC-50) for Ac-ECAH[dF]RWC-NH2 (disulfide 2-8; SMILES CC(=O)N[C@@H](CCC(=O)O)C(=O)N[C@H]1CSSC[C@@H](C(N)=O)NC(=O)[C@H](Cc2c[nH]c3ccccc23)NC(=O)[C@H](CCCNC(=N)N)NC(=O)[C@@H](Cc2ccccc2)NC(=O)[C@H](Cc2c[nH]cn2)NC(=O)[C@H](C)NC1=O) [Ac-Glu-cyclo[Cys-Ala-His-D-Phe-Arg-Trp-Cys]-NH2]
Result: 1.7 nM
